Property: polymerase ribozyme fitness (log ratio); scope: individual variants
B1: TPR t1 (parent)
chain: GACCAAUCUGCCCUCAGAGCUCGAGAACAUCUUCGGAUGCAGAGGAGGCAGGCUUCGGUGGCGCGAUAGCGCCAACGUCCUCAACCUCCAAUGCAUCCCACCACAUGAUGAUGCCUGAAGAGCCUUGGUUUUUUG

Variants of: B1
Test: polymerase ribozyme fitness, log enrichment relative to wild type (log ratio); higher = more active; in vitro selection for triplet polymerase activity
Reported Metric: polymerase ribozyme fitness (log ratio)

C8A A26G C56G C115U ... -1.74
G61U C82A ... -0.605
A46U G69U A91U A103G U106A C114U U131G ... -5.56
A108G G113A ... -2.47
G17C A50C U81A C114U G120U ... -5.67
U9G C115G ... 1.35
C12A A37U C114G ... -3.99
A41G C99U C124A ... -2.72
G127A U129A ... -1.26
C56U U131A ... -0.176
A74U G120U ... -0.788
A43U G48U G120U ... -2.2
A26G G120U ... -1.88

Source: the RNAGym collection of RNA variant scans (doi:10.1073/pnas.2313332121)
